Property: % Adhesion Inhibition; scope: individual binders
target: human α4β7 integrin (human), P13612; assay: inhibition of HUT 78 cell adhesion to murine MAdCAM-1/mCk at 500 µM
Ends that are not written are not given here.

binder: Ac-WRGLDT (not fully specified (C-terminus); printed as Ac-Trp-Arg-Gly-Leu-Asp-Thr) [Ac-Trp-Arg-Gly-Leu-Asp-Thr]
% Adhesion Inhibition [%]: 46
//
binder: Ac-RGLDTS (not fully specified (C-terminus); printed as Ac-Arg-Gly-Leu-Asp-Thr-Ser) [Ac-Arg-Gly-Leu-Asp-Thr-Ser]
% Adhesion Inhibition [%]: 31
//
binder: Ac-LDTSF (not fully specified (C-terminus); printed as Ac-Leu-Asp-Thr-Ser-Phe) [Ac-Leu-Asp-Thr-Ser-Phe]
% Adhesion Inhibition [%]: 86
//
binder: Ac-LETSL (not fully specified (C-terminus); printed as Ac-Leu-Glu-Thr-Ser-Leu) [Ac-Leu-Glu-Thr-Ser-Leu]
% Adhesion Inhibition [%]: 98
//
binder: LYTSL (modifications not checked) [Pba-Leu-Tyr-Thr-Ser-Leu]
% Adhesion Inhibition [%]: 100
